Could you please report measured ka for the items listed next?
System: HMM-mfMSR1 (monkey MSR1 extracellular domain)
Sequence (as listed by the source): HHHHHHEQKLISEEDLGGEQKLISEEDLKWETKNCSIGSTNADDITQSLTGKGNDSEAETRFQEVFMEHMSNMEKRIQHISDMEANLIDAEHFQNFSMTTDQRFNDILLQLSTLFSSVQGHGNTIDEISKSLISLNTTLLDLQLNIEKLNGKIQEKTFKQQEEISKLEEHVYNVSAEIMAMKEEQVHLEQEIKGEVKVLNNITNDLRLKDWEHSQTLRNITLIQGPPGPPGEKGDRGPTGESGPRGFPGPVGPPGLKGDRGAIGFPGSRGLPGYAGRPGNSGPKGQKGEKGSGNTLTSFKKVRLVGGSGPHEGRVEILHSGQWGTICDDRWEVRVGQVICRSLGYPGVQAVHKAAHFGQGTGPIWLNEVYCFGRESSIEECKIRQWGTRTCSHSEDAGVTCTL
method.description: Biacore surface plasmon resonance binding kinetics of anti-MSR1 mAbs, antibody-capture format
test.context: 37° C.; analyte HMM-mfMSR1; antibody-capture format; NB = no binding observed
Numbers only, in M⁻¹ s⁻¹.

molecule	observation.type	test.result
H1H27729P-N297Q: anti-MSR1 antibody "made with an N297Q single point mutation in human Fcγ portion" (antibody, V domains shown) VH: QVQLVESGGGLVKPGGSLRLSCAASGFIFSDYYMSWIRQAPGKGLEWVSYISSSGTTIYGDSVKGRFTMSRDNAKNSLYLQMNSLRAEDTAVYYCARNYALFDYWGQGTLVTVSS VL: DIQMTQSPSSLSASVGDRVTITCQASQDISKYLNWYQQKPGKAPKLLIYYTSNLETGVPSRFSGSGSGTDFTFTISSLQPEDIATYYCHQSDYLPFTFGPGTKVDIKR	ka	407000

Go through the list and state ka for each entry.
1. H1H21227N: "anti-MSR1 antibodies ... (21227N, 21231N, 21234N) were produced with the original human Fcγ portion"; "H1H" = human IgG1 Fc (antibody, V domains shown, human IgG1 Fc, "anti-MSR1 antibodies ; (21227N, 21231N, 21234N) were produced with the original human Fcγ portion"; "H1H" = human IgG1 Fc) VH: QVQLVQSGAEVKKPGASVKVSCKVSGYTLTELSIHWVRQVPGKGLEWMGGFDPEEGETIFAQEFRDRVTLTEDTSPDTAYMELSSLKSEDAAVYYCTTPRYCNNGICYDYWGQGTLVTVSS VL: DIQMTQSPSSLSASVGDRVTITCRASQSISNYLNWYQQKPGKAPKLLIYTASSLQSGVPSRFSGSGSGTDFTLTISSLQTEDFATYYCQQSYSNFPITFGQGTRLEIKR
2. H1H21231N: "anti-MSR1 antibodies ... (21227N, 21231N, 21234N) were produced with the original human Fcγ portion"; "H1H" = human IgG1 Fc (antibody, V domains shown, human IgG1 Fc, "anti-MSR1 antibodies ; (21227N, 21231N, 21234N) were produced with the original human Fcγ portion"; "H1H" = human IgG1 Fc) VH: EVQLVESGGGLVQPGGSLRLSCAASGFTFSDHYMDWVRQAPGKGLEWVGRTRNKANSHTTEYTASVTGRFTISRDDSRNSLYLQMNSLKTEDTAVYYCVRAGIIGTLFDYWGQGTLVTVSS VL: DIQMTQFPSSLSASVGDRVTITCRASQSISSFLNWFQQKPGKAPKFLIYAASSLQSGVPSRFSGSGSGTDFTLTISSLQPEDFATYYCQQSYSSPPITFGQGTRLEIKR
3. H1H21231N-N297Q: modified version of "21231N (H1H21231N-N297Q) anti-MSR1 antibodies" with "a N297Q single point mutation" (antibody, V domains shown) VH: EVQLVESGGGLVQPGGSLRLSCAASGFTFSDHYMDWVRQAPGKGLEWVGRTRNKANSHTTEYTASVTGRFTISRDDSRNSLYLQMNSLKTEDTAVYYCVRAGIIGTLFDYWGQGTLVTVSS VL: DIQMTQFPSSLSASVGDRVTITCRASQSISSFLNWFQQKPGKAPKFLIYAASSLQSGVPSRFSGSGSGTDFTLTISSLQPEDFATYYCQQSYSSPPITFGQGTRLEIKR
4. H1H27739P-N297Q: anti-MSR1 antibody "made with an N297Q single point mutation in human Fcγ portion" (antibody, V domains shown) VH: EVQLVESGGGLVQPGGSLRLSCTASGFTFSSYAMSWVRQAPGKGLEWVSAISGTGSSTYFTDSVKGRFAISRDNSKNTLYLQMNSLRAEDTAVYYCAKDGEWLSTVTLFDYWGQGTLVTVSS VL: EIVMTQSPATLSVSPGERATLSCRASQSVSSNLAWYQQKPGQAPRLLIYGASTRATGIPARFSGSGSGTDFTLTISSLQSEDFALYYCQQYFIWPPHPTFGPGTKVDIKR
5. H1H21227N-N297D: "The 21227N antibody was also produced as a third version with a N297D mutation" (antibody, V domains shown) VH: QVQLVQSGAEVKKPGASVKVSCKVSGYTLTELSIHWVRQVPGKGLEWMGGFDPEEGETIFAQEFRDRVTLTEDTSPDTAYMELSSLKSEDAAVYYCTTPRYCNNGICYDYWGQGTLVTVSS VL: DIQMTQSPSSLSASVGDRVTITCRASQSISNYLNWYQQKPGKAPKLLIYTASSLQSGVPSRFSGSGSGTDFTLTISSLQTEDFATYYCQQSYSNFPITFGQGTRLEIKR

Result:
["2.76e+06", 712000, 587000, "2.25e+06", "2.68e+06"]
